Reference for the values: the supplement of paper PMC13386468

system.name: UniProt Q8IM23
experimental.details: IC50 for competition of protein binding to Kinobeads;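 further: native unpurified kinases from lysate captured on beads bearing immobilized kinase inhibitors, with bead-bound kinases quantified by mass spectrometry across compound doses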
test.context: assay detail: Kinobeads competition in P. falciparum blood-stage lysate
measurement.name: IC50

Summary for this compound, O=c1[nH]c2ccc(Cl)cc2c(NC2CN3CCC2CC3)c1-c1nc2ccccc2[nH]1 (stereo unspecified) : IC50 is > 20 µM

###

system.name: UniProt C6KT13
experimental.details: IC50 for competition of protein binding to Kinobeads
test.context: assay detail: Kinobeads competition in P. falciparum blood-stage lysate
pIC50: −log10 of the molar value.
measurement.name: pIC50

Summary for this compound, O=c1[nH]c2ccc(Cl)cc2c(NC2CN3CCC2CC3)c1-c1nc2ccccc2[nH]1 (stereo unspecified) [CHIR-124] : pIC50 is < 4.70
